# testProtocol: Steady-state plasma pharmacokinetics in healthy volunteers
# Assay type: in vivo, human
# cond: human, plasma, po, 600 mg
propertyMeasured: AUC (ng·h/mL)

{"compoundString": "O=C1Nc2ccc(Cl)cc2[C@@](C#CC2CC2)(C(F)(F)F)O1", "propertyMeasured": "AUC", "experimentalValue": 42500}

###

# testProtocol: Steady-state plasma pharmacokinetics in healthy volunteers
# Type: in vivo, human
# cond: human, plasma, po

{"compoundString": "CC(C)(C)NC(=O)[C@@H]1C[C@@H]2CCCC[C@@H]2CN1C[C@@H](O)[C@H](Cc1ccccc1)NC(=O)[C@H](CC(N)=O)NC(=O)c1ccc2ccccc2n1", "Tmax / h": 2}

###

# testProtocol: Steady-state plasma pharmacokinetics in healthy volunteers
# Format: in vivo, human
# cond: human, plasma, po, 600 mg

{"compoundString": "O=C1Nc2ccc(Cl)cc2[C@@](C#CC2CC2)(C(F)(F)F)O1", "unitDescriptor": "h", "Tmax": 2}

###

# testProtocol: Steady-state plasma pharmacokinetics in healthy volunteers
# Assay type: in vivo, human
# cond: human, plasma, po, 600 mg

{"compoundString": "O=C1Nc2ccc(Cl)cc2[C@@](C#CC2CC2)(C(F)(F)F)O1", "half-life": "26.5 h"}
